system: RAW-Dual; assay: NF-kB SEAP reporter activity, fold change vs agonist alone; cytotoxicity flag (confluency mask): not cytotoxic; higher = enhanced NF-kB activity; conditions: agonist: Pam2CSK4 (TLR2/6) 0.1 ug/mL
Over roughly 2,900 compounds, “NF-kB SEAP reporter activity, fold change vs agonist alone” has its median near 0.99; the highest 2% begin near 2.6. Shown is part of a subset that was picked to be rich in the highest values.
# NF-kB SEAP reporter activity per entry
READOUT NAME: NF-kB SEAP reporter activity

[[record]]
compound = "CCCCCCCCCCCCCCCCCC(=O)O (library stock concentration (final ~1000-fold dilution): 10 mM)"
readout_number = 0.95

[[record]]
compound = "Cc1nc2cc(F)c(F)cc2n1-c1cncc(Nc2ccc(C(F)(F)F)cc2)n1 (library stock concentration (final ~1000-fold dilution): 10 mM)"
readout_number = 0.571

[[record]]
compound = "O=C(Nc1ccc(Cl)cc1)c1cc2ccccc2cc1OP(=O)(O)O (library stock concentration (final ~1000-fold dilution): 10 mM)"
readout_number = 0.931

[[record]]
compound = "CC(C)(O)CNc1ncc(-c2ccnc(Nc3ccnc(Cl)c3)n2)c(CC2CC2)n1 (library stock concentration (final ~1000-fold dilution): 10 mM)"
readout_number = 1.41

[[record]]
compound = "CNC1C(O)C(OC2C(NC(=O)C(O)CN)CC(N)C(OC3OC(CN)C(O)C(O)C3O)C2O)OCC1(C)O.O=S(=O)(O)O (stereo not drawn) (library stock concentration (final ~1000-fold dilution): 10 mM water)"
readout_number = 1.3

[[record]]
compound = "CCOc1cc(=O)[nH]cc1-c1ccc(CC(=O)Nc2cc(C(C)(C)C(F)(F)F)on2)c(F)c1 (library stock concentration (final ~1000-fold dilution): 10 mM)"
readout_number = 0.163

[[record]]
compound = "CCCN1CCCCC1C(=O)Nc1c(C)cccc1C (stereo not drawn) (library stock concentration (final ~1000-fold dilution): 10 mM)"
readout_number = 0.952

[[record]]
compound = "CCCOc1ccc(S(=O)(=O)NCCC2CCCN2C)cc1-c1nc(=O)c2c([nH]1)c(CCC)nn2C (stereo not drawn) (library stock concentration (final ~1000-fold dilution): 10 mM)"
readout_number = 0.99


###

system: RAW-Dual; experiment: NF-kB SEAP reporter activity, fold change vs agonist alone; higher = enhanced NF-kB activity; details: library stock concentration (final ~1000-fold dilution): 10 mM; cytotoxicity flag (confluency mask): not cytotoxic; agonist: MPLA (TLR4) […]
Over roughly 2,900 compounds, “NF-kB SEAP reporter activity, fold change vs agonist alone” has its median near 0.99; the highest 2% begin near 2.6. The list comes from a sample in which the highest values are over-represented; it also holds close analogues and randomly drawn compounds.
The compounds listed here are annotated with their NF-kB SEAP reporter activity.
READOUT NAME: NF-kB SEAP reporter activity

[[record]]
compound = "Cc1csc(-c2nc[nH]c2-c2ccc3ncsc3c2)n1.Cl"
readout_number = 1.34

[[record]]
compound = "CN1C2=C3N=c4ccccc4=C3CCN2C(=O)c2ccccc21"
readout_number = 1.83

[[record]]
compound = "Cl.N=c1ccn2c(n1)OC1C(O)C(CO)OC12 (stereo not drawn)"
readout_number = 1.42

[[record]]
compound = "Cc1[nH]c2ccccc2c1C1=C(NCCc2ccc(F)cc2)C(=O)N(C)C1=O"
readout_number = 1.28

[[record]]
compound = "CC(=O)ON=C1C(c2c(O)[nH]c3cc(Br)ccc23)=Nc2ccccc21"
readout_number = 1.48

[[record]]
compound = "O=C1c2ccc(O)cc2C(=O)c2ccc(O)cc21"
readout_number = 1.26

[[record]]
compound = "Cc1[nH]c2ccccc2c1CCNC(=O)c1cccs1"
readout_number = 1.11

[[record]]
compound = "CC1OC(=O)C(C)C1CC(O)C(C)(O)C1CCC2(O)C3=CC(=O)C4CC(O)C(O)CC4(C)C3CCC12C (stereo not drawn)"
readout_number = 1.05

[[record]]
compound = "Oc1cc(CNC(=S)/C=C/c2cc(O)c(O)c(Br)c2)cc(O)c1O"
readout_number = 2.29

[[record]]
compound = "COc1cc2ncnc(Nc3ccc(Oc4ccccc4)cc3C)c2cc1OC.Cl"
readout_number = 0.792

[[record]]
compound = "COc1ccc(F)c(F)c1C(=O)c1cnc(NC2CCN(S(C)(=O)=O)CC2)nc1N"
readout_number = 0.905

[[record]]
compound = "c1cncc(-c2c[nH]nn2)c1"
readout_number = 0.972

[[record]]
compound = "CCNC1=NC2C(OC(CO)C(O)C2O)S1 (stereo not drawn)"
readout_number = 1.17

